Recorded values, source patent US8318731B2.

Tested on: PC3
Assay: Cellular proliferation assay (Alamar blue), PC3
Type: cell-based
Settings: Homo sapiens, PC-3, PC-3 cells; 10% FCS; 72 h with compound; Alamar blue 24 h; read-out: pIC50 PC-3 (converted)
Result Type: IC50

COc1ccc2cc1OCC(=O)N(C)CCN(C)Cc1c[nH]c3ncnc(c13)N2 | > 10 µM
COc1ccc2cc1OCC(=O)NCC1CN(Cc3c[nH]c4ncnc(c34)N2)C1 | > 10 µM
CCOCCOc1ccc2cc1OCC(=O)N(C)CCCN(C)Cc1c[nH]c3nc(C)nc(c13)N2 | > 10 µM

---

Tested on: H1299
Assay: Cellular proliferation assay (Alamar blue), H1299
Type: cell-based
Details: Homo sapiens, NCI-H1299, H1299 cells; 10% FCS; 72 h with compound; Alamar blue 4 h; read-out: pIC50 H1299 (converted)
Result Type: IC50

CN1CCCN(C)C(=O)COc2cc(ccc2NC(=O)Nc2ccc(Cl)cc2)Nc2ncnc3[nH]cc(c23)C1 [Compound 116] | 0.631 µM
CN1CCCN(C)C(=O)COc2cc(ccc2NC(=O)NCC2CC2)Nc2ncnc3[nH]cc(c23)C1 [Compound 127] | > 10 µM
CN1CCCN(C)C(=O)CCCOc2cc(cc(C(F)(F)F)c2)Nc2ncnc3[nH]cc(c23)C1 [Compound 83] | 3.98 µM
COc1ccc2cc1OCC(=O)N(C1CCCCC1)CCCN(C)Cc1c[nH]c3ncnc(c13)N2 [Compound 64] | > 10 µM
CN1CCCN(C)C(=O)CCc2cc(ccc2N2CCOCC2)Nc2ncnc3[nH]cc(c23)C1 [Compound 56] | > 10 µM
CN1CCN(c2ccc3cc2OCCCCC(=O)N2CCN(CC2)Cc2c[nH]c4ncnc(c24)N3)CC1 [Compound 108] | > 10 µM

---

System: HCT-116
Assay: Cellular proliferation assay (Alamar blue), HCT-116
Assay type: cell-based
Details: Homo sapiens; HCT-116 cells; 10% FCS; 72 h with compound; Alamar blue 4 h; read-out: pIC50 HCT-116 (converted)
The compounds listed here are annotated with their log10(IC50).
Result Type: log10(IC50) (log10 of the value in nM)

CN1CCCN(C)C(=O)COc2cc(ccc2Cl)Nc2ncnc3[nH]cc(c23)C1 | 2.80
COc1cc(NC(=O)COc2ccc3cc2OCC(=O)N(C)CCCN(C)Cc2c[nH]c4ncnc(c24)N3)cc(OC)c1OC | 3.30
COCCN(CCOc1ccc2cc1OCC(=O)N(C)CCCN(C)Cc1c[nH]c3ncnc(c13)N2)C(C)C | 3.00
CN1CCCN(C)C(=O)COc2cc(ccc2OCCNc2ccc(Cl)cc2)Nc2ncnc3[nH]cc(c23)C1 | 2.40
CN1CCCN(C)C(=O)COc2cc(ccc2OCC(=O)NC2CCCC2)Nc2ncnc3[nH]cc(c23)C1 | 3.20
COCCN(CCOc1ccc2cc1OCC(=O)N(C)CCCN(C)Cc1c[nH]c3ncnc(c13)N2)Cc1ccccc1 | 2.60
CN1CCCN(C)C(=O)COc2cc(ccc2NC(=O)NC2CCCCC2)Nc2ncnc3[nH]cc(c23)C1 | 3.30
COc1ccc(NC(=O)COc2ccc3cc2OCC(=O)N(C)CCCN(C)Cc2c[nH]c4ncnc(c24)N3)cc1 | 1.90
COc1ccc2cc1OCC(=O)NCC1CN(Cc3c[nH]c4ncnc(c34)N2)C1 | 3.70
